Origin of values: the supplement of paper PMC7877785

experiment: self-splicing fitness, log relative to wild type (ln ratio); higher = more splicing; Tetrahymena group I intron in knt gene, E. coli kanamycin selection, DiMSum; sequences stand for … in CUCUCU…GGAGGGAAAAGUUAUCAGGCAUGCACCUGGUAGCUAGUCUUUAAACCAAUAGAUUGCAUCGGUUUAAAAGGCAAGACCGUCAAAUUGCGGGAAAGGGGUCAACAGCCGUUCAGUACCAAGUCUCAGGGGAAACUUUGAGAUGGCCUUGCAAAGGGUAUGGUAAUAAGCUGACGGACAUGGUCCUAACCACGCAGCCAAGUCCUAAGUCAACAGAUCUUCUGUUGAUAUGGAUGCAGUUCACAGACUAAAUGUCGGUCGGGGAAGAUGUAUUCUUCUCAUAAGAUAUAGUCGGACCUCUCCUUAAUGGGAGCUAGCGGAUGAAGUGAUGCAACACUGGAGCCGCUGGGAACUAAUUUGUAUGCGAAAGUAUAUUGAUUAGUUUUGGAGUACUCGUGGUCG; conditions: 37 °C;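 note: selection with 25 µg/mL kanamycin versus none on LB agar overnight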
So basically: self-splicing fitness (ln) at -2 or higher? That is yes (1). Lower than -2? That is no (0).

UGAUAGCAAUAUUACGGGCA	yes (1)

[ask] Hello, I need to know if `GAUGAGCAAUAUUACGUAAA` has measured self-splicing fitness (ln) not below -2. Thanks!
[reply] yes (1)

[ask] Please indicate if the recorded self-splicing fitness (ln) for `GGCCAGCAAUAUUACGCCGU` meets or exceeds -2.
[reply] yes (1)

[ask] Answer whether self-splicing fitness (ln) of `CUCAAGCAAUAUUACGUGAU` is greater than or equal to -2.
[reply] yes (1)

[ask] Could you please find out whether `CUAUAGCAAUAUUACGGACC` has self-splicing fitness (ln) that meets -2 or exceeds it?
[reply] yes (1)

[ask] Is self-splicing fitness (ln) for `UUCAAGCAAUAUUACGGCCG` at or above -2?
[reply] yes (1)

[ask] Check if self-splicing fitness (ln) >= -2 (inclusive). Item: `CCCCAGCAAUAUUACGGUGA`
[reply] yes (1)

[ask] Could you verify whether the entry `AUAUAGCAAUAUUACGUGGG` shows self-splicing fitness (ln) of no less than -2?
[reply] no (0)

[ask] Could you tell me if the measured self-splicing fitness (ln) of `GCGAAGCAAUAUUACGAUUU` reaches -2 or more?
[reply] yes (1)

###

assay: self-splicing fitness, log relative to wild type (ln ratio); higher = more splicing; Tetrahymena group I intron in knt gene, E. coli kanamycin selection, DiMSum; sequences stand for … in CUCUCU…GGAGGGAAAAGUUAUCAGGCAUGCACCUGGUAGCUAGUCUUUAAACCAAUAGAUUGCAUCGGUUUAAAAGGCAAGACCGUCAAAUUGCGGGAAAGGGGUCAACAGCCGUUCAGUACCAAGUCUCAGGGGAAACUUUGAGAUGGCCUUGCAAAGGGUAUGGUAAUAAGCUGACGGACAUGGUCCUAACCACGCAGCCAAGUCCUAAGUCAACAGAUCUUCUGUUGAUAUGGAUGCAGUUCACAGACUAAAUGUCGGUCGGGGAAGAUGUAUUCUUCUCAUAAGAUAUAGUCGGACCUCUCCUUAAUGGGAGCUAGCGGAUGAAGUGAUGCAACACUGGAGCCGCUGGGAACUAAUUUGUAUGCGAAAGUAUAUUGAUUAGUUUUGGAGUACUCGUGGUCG; conditions: 30 °C
experimental_endpoint: self-splicing fitness (ln)
// keep it numeric: no unit symbol after the value

Known self-splicing fitness (ln) results, listed for orientation:
UCCAAGCAAUAUUACGCAUA	-1.07
GAACAGCAAUAUUACGGCUG	-2.78
GAUCAGCAAUAUUACGAAAC	-0.961
GUUUAGCAAUAUUACGUCAA	-2.3
GCAAAGCAAUAUUACGGGAA	-2.43

Now consider the entry below.
[ask] Requested field: self-splicing fitness (ln). Item: `UUAGAGCAAUAUUACGCCUA`
[reply] -0.268
